For each of the compounds below, state its IC50.
biological target: recombinant HIV-1 protease (wild type) (Human immunodeficiency virus type 1 group M subtype B, UniProt P04585); construct: 8 μL of recombinant HIV-1 protease (wild type); test: FRET assay of HIV-1 protease inhibition
Give a bare numeral; the unit mM is implied.

Need IC50, item O=C(C=Cc1ccc(O)c(O)c1)OC1CC(O)(C(=O)O)CC(O)C1OC(=O)C=Cc1ccc(O)c(O)c1 (centres unmarked)
0.252

Need IC50, item O=C(O)/C=C/c1ccc(O)c(O)c1
2.66

* * *

target: recombinant HIV-1 protease (wild type) (Human immunodeficiency virus type 1 group M subtype B, UniProt P04585); construct: 8 μL of recombinant HIV-1 protease (wild type); purchased AnaSpec Inc; assay: FRET assay of HIV-1 protease inhibition; assay type: biochemical; settings: 1.0 mg/mL; n = 3
Classify by measured HIV-1 PR Inhibition (%) ± SD at 1.0 (mg/mL): 1.0 if it is equal to or exceeds 60%, 0.0 if it is smaller.

# bool: HIV-1 PR Inhibition (%) ± SD at 1.0 (mg/mL) of C[C@@H]1CC[C@H]2[C@@H](C)C(=O)O[C@@H]3O[C@@]4(C)CC[C@@H]1[C@]32OO4 >= 60%
0.0

# bool: HIV-1 PR Inhibition (%) ± SD at 1.0 (mg/mL) of O=C(C=Cc1ccc(O)c(O)c1)OC1CC(O)(C(=O)O)CC(O)C1OC(=O)C=Cc1ccc(O)c(O)c1 (centres unmarked) >= 60%
1.0

# bool: HIV-1 PR Inhibition (%) ± SD at 1.0 (mg/mL) of O=C(O)/C=C/c1ccc(O)c(O)c1 >= 60%
1.0

# bool: HIV-1 PR Inhibition (%) ± SD at 1.0 (mg/mL) of C[C@@H]1O[C@@H](O[C@H]2C(=O)c3c(O)cc(O)cc3O[C@@H]2c2ccc(O)c(O)c2)[C@H](O)[C@H](O)[C@H]1O >= 60%
1.0

# bool: HIV-1 PR Inhibition (%) ± SD at 1.0 (mg/mL) of COc1cc(O)cc2c1C(=O)C[C@@H](c1ccccc1)O2 >= 60%
1.0

* * *

target: human recombinant Cathepsin L protease (Homo sapiens); construct: purchased AnaSpec Inc. SensoLyte 520 Cathepsin L Protease Assay Kit, Lot#: AS72218-1010; test: FRET assay of Cathepsin L protease inhibition (SensoLyte 520 kit); type: biochemical; settings: 0.01 mg/mL; n = 3; read-out: CatL PR Inhibition (%) ± SD at 0.01 (mg/mL)
Sequence (P07711 114-333): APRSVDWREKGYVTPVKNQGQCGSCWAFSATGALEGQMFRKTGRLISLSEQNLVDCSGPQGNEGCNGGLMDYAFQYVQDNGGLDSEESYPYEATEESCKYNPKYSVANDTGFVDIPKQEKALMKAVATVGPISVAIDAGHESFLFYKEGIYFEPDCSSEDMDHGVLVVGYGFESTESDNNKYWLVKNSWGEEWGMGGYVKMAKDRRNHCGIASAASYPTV
For each of the compounds below, state its inhibition at 10 µg/mL.
Give a bare numeral; the unit % is implied.

Need inhibition at 10 µg/mL, item COc1ccc(C(C)=O)c(O)c1 [Compound 3, Paeonol]
-15

Need inhibition at 10 µg/mL, item C[C@@H]1O[C@@H](O[C@H]2C(=O)c3c(O)cc(O)cc3O[C@@H]2c2ccc(O)c(O)c2)[C@H](O)[C@H](O)[C@H]1O [Compound 9, Astilbin]
-24.7

Need inhibition at 10 µg/mL, item COc1cc2ccc(=O)oc2c(O)c1O [Compound 8, Fraxetin]
15

Need inhibition at 10 µg/mL, item O=C(/C=C/c1ccc(O)c(O)c1)O[C@@H]1C[C@](O)(C(=O)O)C[C@@H](O)[C@H]1O [Compound 5, Chlorogenic acid]
40.8

Need inhibition at 10 µg/mL, item O=C(/C=C/c1ccc(O)c(O)c1)O[C@H](Cc1ccc(O)c(O)c1)C(=O)O [Compound 12, Rosmarinic acid]
19.2

Need inhibition at 10 µg/mL, item COc1cc(O)cc2c1C(=O)C[C@@H](c1ccccc1)O2 [Compound 13, Alpinetin]
11.9

Need inhibition at 10 µg/mL, item O=C(O)/C=C/c1ccc(O)c(O)c1 [Compound 7, Caffeic acid]
32.1

Need inhibition at 10 µg/mL, item COc1cc2ccc(=O)oc2c(OC)c1O [Compound 10, Isofraxidin]
27
